Examples of molecules with documented Fold Induction Average, AA_3T3V1 Assay 33 μM follow.
target: Gal4DBD/AaEcR (DEF) (Aedes aegypti); construct: The wildtype D, E, and F domains from mosquito Aedes aegypti EcR; expressed in transfected cells; host or cells: 3T3 cells; assay: cell-based; assay type: cell-based; details: 33 μM; 3T3 cells; 48 h; average of two wells
Sequence (P28704 286-520 A311G/G315S/G445S/I449V): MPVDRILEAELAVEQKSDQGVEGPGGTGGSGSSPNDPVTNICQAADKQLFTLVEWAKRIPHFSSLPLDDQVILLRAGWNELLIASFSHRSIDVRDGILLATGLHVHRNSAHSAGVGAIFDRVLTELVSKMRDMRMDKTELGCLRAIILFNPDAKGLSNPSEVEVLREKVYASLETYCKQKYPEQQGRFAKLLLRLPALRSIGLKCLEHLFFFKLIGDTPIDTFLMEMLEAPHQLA
Sequence (P49880 405-776): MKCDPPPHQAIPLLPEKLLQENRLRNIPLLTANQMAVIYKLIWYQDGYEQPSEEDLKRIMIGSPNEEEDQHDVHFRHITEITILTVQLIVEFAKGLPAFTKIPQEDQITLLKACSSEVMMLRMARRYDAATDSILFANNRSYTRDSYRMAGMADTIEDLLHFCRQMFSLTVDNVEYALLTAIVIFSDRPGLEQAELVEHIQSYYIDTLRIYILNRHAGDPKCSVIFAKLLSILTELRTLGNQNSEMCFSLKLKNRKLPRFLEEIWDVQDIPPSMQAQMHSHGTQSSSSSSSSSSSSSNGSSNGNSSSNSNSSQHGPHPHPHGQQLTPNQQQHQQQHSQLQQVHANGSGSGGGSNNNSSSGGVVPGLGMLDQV
reportedEndpoint: Fold Induction Average, AA_3T3V1 Assay 33 μM (fold)

# molecule, unitsSymbol, assayValue
rows = [
    ("Cc1ccc(NC2CC(C)N(C(=O)c3ccc(C)cc3)c3ccc(C)cc32)cc1 (centres unmarked)", "fold", 2),
    ("COc1ccc(C(=O)N2c3ccccc3C(N(C(=O)c3ccc(OC)cc3)c3ccccc3)CC2C)cc1 (centres unmarked)", "fold", 1),
    ("CC1CC(Nc2ccccc2)c2ccccc2N1C(=O)c1ccc(Cl)cc1 (centres unmarked)", "fold", 216),
    ("Cc1ccc(NC2CC(C)N(C(=O)c3cccc(F)c3)c3ccc(C)cc32)cc1 (centres unmarked) [Compound I-174]", "fold", 1),
    ("CC1CC(Nc2ccccc2)c2ccccc2N1C(=O)Nc1ccc(Cl)cc1 (centres unmarked)", "fold", 367),
    ("CC1CC(Nc2ccc(F)cc2)c2cc(F)ccc2N1C(=O)c1ccc(Cl)c(F)c1 (centres unmarked)", "fold", 643),
    ("C[C@H]1C[C@H](Nc2ccccc2)c2ccccc2N1C(=O)c1ccc(C(F)(F)F)cc1 (relative stereo)", "fold", 291),
    ("Cc1ccc(N[C@H]2C[C@H](C)N(C(=O)Nc3cccc(Cl)c3)c3ccc(C)cc32)cc1 (relative stereo)", "fold", 6),
]

* * *

system: GAL4 DBD-CfEcR(DEF)/VP16AD-MmRXRE; details: CHO 13B3 clone, 48 h, average of two wells
reportedEndpoint: Fold Induction Average, 13B3V1 Assay 33 μM (fold)

# molecule, testedTarget, assayValue
data = [
    ("Cc1cc(C(=O)N2c3ccc(F)cc3[C@@H](Nc3ccc(F)cc3)C[C@@H]2C)ccc1F (relative stereo)", "GAL4 DBD-CfEcR(DEF)/VP16AD-MmRXRE", 4),
    ("CC(=O)N(c1ccccc1)C1CC(C)N(C(=O)C=Cc2ccccc2)c2ccccc21 (centres unmarked)", "GAL4 DBD-CfEcR(DEF)/VP16AD-MmRXRE", 3),
    ("C[C@H]1C[C@H](Nc2ccc(F)cc2)c2cc(F)ccc2N1C(=O)c1ccc(F)c(C(F)(F)F)c1 (relative stereo)", "GAL4 DBD-CfEcR(DEF)/VP16AD-MmRXRE", 1),
    ("COc1ccc(C(=O)N(c2ccccc2)C2CC(C)N(C(=O)c3ccc(Cl)cc3)c3ccccc32)cc1 (centres unmarked)", "GAL4 DBD-CfEcR(DEF)/VP16AD-MmRXRE", 1),
    ("Cc1ccc(C(=O)N(c2ccccc2)C2CC(C)N(C(=O)c3ccc(Cl)cc3)c3ccccc32)cc1 (centres unmarked)", "GAL4 DBD-CfEcR(DEF)/VP16AD-MmRXRE", 1),
    ("COc1cccc(C(=O)N2c3ccccc3C(Nc3ccccc3)CC2C)c1C (centres unmarked)", "GAL4 DBD-CfEcR(DEF)/VP16AD-MmRXRE", 1),
    ("CC1CC(Nc2ccccc2)c2ccccc2N1C(=O)c1cccc(Br)c1 (centres unmarked)", "GAL4 DBD-CfEcR(DEF)/VP16AD-MmRXRE", 1),
    ("Cc1ccc(N[C@@H]2C[C@H](C)N(C(=O)c3ccc(C)c(F)c3)c3ccc(C)cc32)cc1 (relative stereo)", "GAL4 DBD-CfEcR(DEF)/VP16AD-MmRXRE", 1),
    ("COc1ccc(C=CC(=O)N2c3ccccc3[C@@H](Nc3ccccc3)C[C@@H]2C)cc1OC (relative stereo)", "GAL4 DBD-CfEcR(DEF)/VP16AD-MmRXRE", 1),
    ("COc1cccc(C(=O)N2c3ccc(F)cc3C(Nc3ccc(F)cc3)CC2C)c1C (centres unmarked)", "GAL4 DBD-CfEcR(DEF)/VP16AD-MmRXRE", 30),
    ("CCCc1ccc(C(=O)N2c3ccccc3C(Nc3ccccc3)CC2C)cc1 (centres unmarked)", "GAL4 DBD-CfEcR(DEF)/VP16AD-MmRXRE", 1),
    ("COc1ccc(C(=O)N2c3ccccc3C(N(C(=O)c3cccs3)c3ccccc3)CC2C)cc1 (centres unmarked)", "GAL4 DBD-CfEcR(DEF)/VP16AD-MmRXRE", 1),
    ("Cc1ccc(NC2CC(C)N(C(=O)c3ccc4c(c3)OCO4)c3ccc(C)cc32)cc1 (centres unmarked)", "GAL4 DBD-CfEcR(DEF)/VP16AD-MmRXRE", 1),
    ("CC1CC(Nc2ccccc2)c2ccccc2N1C(=O)c1cccc([N+](=O)[O-])c1 (centres unmarked)", "GAL4 DBD-CfEcR(DEF)/VP16AD-MmRXRE", 118),
    ("C[C@H]1C[C@@H](Nc2ccccc2)c2ccccc2N1C(=O)c1ccc2c(c1)OCO2 (relative stereo)", "GAL4 DBD-CfEcR(DEF)/VP16AD-MmRXRE", 1),
    ("CCCCCc1ccc(C(=O)N2c3ccccc3C(Nc3ccccc3)CC2C)cc1 (centres unmarked)", "GAL4 DBD-CfEcR(DEF)/VP16AD-MmRXRE", 1),
    ("Cc1ccc(C(=O)N2c3ccccc3C(Nc3ccccc3Cl)CC2C)cc1 (mixture of isomers)", "GAL4 DBD-CfEcR(DEF)/VP16AD-MmRXRE", 1),
]

* * *

biological target: Bombyx mori EcR (VP16-BmEcR, CVBE) (Bombyx mori); construct: expressed in transfected cells; test: Z3 assay (HEK-293 clone Z3 with CVBE and 6x EcRE LacZ, β-galactosidase reporter); format: cell-based; conditions: 48 h, average of two wells
Sequence (P49881 86-606): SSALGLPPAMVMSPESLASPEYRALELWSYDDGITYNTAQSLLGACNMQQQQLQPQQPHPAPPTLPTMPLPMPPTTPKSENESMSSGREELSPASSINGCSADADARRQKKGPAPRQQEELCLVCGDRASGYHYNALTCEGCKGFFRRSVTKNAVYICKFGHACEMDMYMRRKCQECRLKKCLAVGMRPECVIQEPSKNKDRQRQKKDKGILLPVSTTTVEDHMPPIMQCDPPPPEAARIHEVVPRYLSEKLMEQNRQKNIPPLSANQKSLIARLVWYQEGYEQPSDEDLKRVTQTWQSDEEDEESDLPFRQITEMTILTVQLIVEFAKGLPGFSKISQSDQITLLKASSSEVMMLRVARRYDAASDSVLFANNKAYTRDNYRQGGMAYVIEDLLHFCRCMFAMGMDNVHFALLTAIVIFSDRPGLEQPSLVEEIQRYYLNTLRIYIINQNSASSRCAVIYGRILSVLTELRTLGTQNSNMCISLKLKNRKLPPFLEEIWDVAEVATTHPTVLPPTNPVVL
Quick rule: Fold Induction Average, Z3V1 Assay 33 μM of at least 20 fold means Condition met, below that means Condition not met.

# molecule, testedTarget, classAssignment
data = [
    ("Cc1ccc(C(=O)N2c3ccccc3C(Nc3ccc(F)cc3)CC2C)cc1 (mixture of isomers)", "Bombyx mori EcR (VP16-BmEcR, CVBE) (Bombyx mori)", "Condition met"),
    ("Cc1cc(C(=O)N2c3ccc(F)cc3[C@@H](Nc3ccc(F)cc3)C[C@@H]2C)ccc1F (relative stereo)", "Bombyx mori EcR (VP16-BmEcR, CVBE) (Bombyx mori)", "Condition met"),
    ("CCc1ccc(C(=O)N2c3ccc(F)cc3[C@@H](Nc3ccc(F)cc3)C[C@@H]2C)cc1 (relative stereo)", "Bombyx mori EcR (VP16-BmEcR, CVBE) (Bombyx mori)", "Condition met"),
    ("Cc1ccc(N[C@H]2C[C@H](C)N(C(=O)c3ccc(C(F)(F)F)c(F)c3)c3ccc(C)cc32)cc1 (relative stereo)", "Bombyx mori EcR (VP16-BmEcR, CVBE) (Bombyx mori)", "Condition not met"),
    ("Cc1ccc(N[C@H]2C[C@H](C)N(C(=O)c3ccccc3)c3ccc(C)cc32)cc1 (relative stereo)", "Bombyx mori EcR (VP16-BmEcR, CVBE) (Bombyx mori)", "Condition not met"),
    ("C[C@H]1C[C@H](Nc2ccc(F)cc2)c2cc(F)ccc2N1C(=O)c1ccc(F)cc1 (relative stereo)", "Bombyx mori EcR (VP16-BmEcR, CVBE) (Bombyx mori)", "Condition not met"),
    ("CC1CC(Nc2ccccc2)c2ccccc2N1C(=O)c1ccc(Cl)c(F)c1 (centres unmarked)", "Bombyx mori EcR (VP16-BmEcR, CVBE) (Bombyx mori)", "Condition met"),
    ("Cc1ccc(N[C@H]2C[C@H](C)N(C(=O)c3cccc(C)c3)c3ccc(C)cc32)cc1 (relative stereo)", "Bombyx mori EcR (VP16-BmEcR, CVBE) (Bombyx mori)", "Condition not met"),
    ("C[C@H]1C[C@H](Nc2ccc(F)cc2)c2cc(F)ccc2N1C(=O)c1ccc(C(F)(F)F)cc1 (relative stereo)", "Bombyx mori EcR (VP16-BmEcR, CVBE) (Bombyx mori)", "Condition met"),
    ("COc1ccc(C(=O)N2c3ccc(F)cc3C(Nc3ccc(F)cc3)CC2C)cc1 (centres unmarked)", "Bombyx mori EcR (VP16-BmEcR, CVBE) (Bombyx mori)", "Condition not met"),
    ("COc1ccc(NC2CC(C)N(C(=O)c3ccc(C)cc3)c3ccccc32)cc1 (mixture of isomers)", "Bombyx mori EcR (VP16-BmEcR, CVBE) (Bombyx mori)", "Condition not met"),
    ("CC1CC(Nc2ccccc2)c2ccccc2N1C(=O)c1ccc(NS(C)(=O)=O)cc1 (centres unmarked)", "Bombyx mori EcR (VP16-BmEcR, CVBE) (Bombyx mori)", "Condition not met"),
    ("COc1cccc(C(=O)N2c3ccc(F)cc3[C@@H](Nc3ccc(F)cc3)C[C@@H]2C)c1 (relative stereo)", "Bombyx mori EcR (VP16-BmEcR, CVBE) (Bombyx mori)", "Condition met"),
    ("COc1cccc(C(=O)N2c3ccc(F)cc3C(Nc3ccc(F)cc3)CC2C)c1C (centres unmarked)", "Bombyx mori EcR (VP16-BmEcR, CVBE) (Bombyx mori)", "Condition met"),
    ("CCc1ccc(C(=O)N2c3ccc(F)cc3C(Nc3ccc(F)cc3)CC2C)cc1 (centres unmarked)", "Bombyx mori EcR (VP16-BmEcR, CVBE) (Bombyx mori)", "Condition met"),
    ("COc1ccc(C(=O)N2c3ccc(F)cc3[C@@H](Nc3ccc(F)cc3)C[C@@H]2C)cc1 (relative stereo)", "Bombyx mori EcR (VP16-BmEcR, CVBE) (Bombyx mori)", "Condition met"),
    ("CC1CC(Nc2ccccc2)c2ccccc2N1C(=O)c1cccc(Br)c1 (centres unmarked)", "Bombyx mori EcR (VP16-BmEcR, CVBE) (Bombyx mori)", "Condition not met"),
    ("Cc1ccc(NC2CC(C)N(C(=O)c3ccc(Cl)cc3)c3ccc(C)cc32)cc1 (centres unmarked) [Compound I-144]", "Bombyx mori EcR (VP16-BmEcR, CVBE) (Bombyx mori)", "Condition not met"),
    ("Cc1ccc(N[C@H]2C[C@H](C)N(C(=O)c3ccc(C(F)(F)F)cc3)c3ccc(C)cc32)cc1 (relative stereo)", "Bombyx mori EcR (VP16-BmEcR, CVBE) (Bombyx mori)", "Condition not met"),
    ("CCC(=O)N1c2ccccc2C(N(C(=O)c2ccc([N+](=O)[O-])cc2)c2ccccc2)CC1C (centres unmarked)", "Bombyx mori EcR (VP16-BmEcR, CVBE) (Bombyx mori)", "Condition not met"),
    ("Cc1ccc(NC2CC(C)N(C(=O)c3ccc(Cl)cc3)c3ccc(C)cc32)cc1 (centres unmarked) [Compound I-63]", "Bombyx mori EcR (VP16-BmEcR, CVBE) (Bombyx mori)", "Condition not met"),
    ("C[C@H]1C[C@H](Nc2ccccc2)c2ccccc2N1C(=O)c1cccc(C(F)(F)F)c1 (relative stereo)", "Bombyx mori EcR (VP16-BmEcR, CVBE) (Bombyx mori)", "Condition met"),
    ("Cc1ccc(C(=O)N2c3ccccc3C(Nc3cccc(Cl)c3)CC2C)cc1 (mixture of isomers)", "Bombyx mori EcR (VP16-BmEcR, CVBE) (Bombyx mori)", "Condition not met"),
    ("CC1CC(Nc2ccccc2)c2ccccc2N1C(=O)c1ccc(Cl)cc1 (centres unmarked)", "Bombyx mori EcR (VP16-BmEcR, CVBE) (Bombyx mori)", "Condition not met"),
    ("CCCC(=O)N1c2ccccc2C(N(C(=O)c2ccccc2)c2ccc(F)cc2)CC1C (centres unmarked)", "Bombyx mori EcR (VP16-BmEcR, CVBE) (Bombyx mori)", "Condition not met"),
    ("Cc1ccc(C(=O)N2c3ccccc3C(N(C(=O)c3ccc(F)cc3)c3ccccc3)CC2C)cc1 (centres unmarked)", "Bombyx mori EcR (VP16-BmEcR, CVBE) (Bombyx mori)", "Condition not met"),
    ("Cc1ccc(C(=O)N2c3ccc(F)cc3C(N(C(=O)c3ccc(C)c(F)c3)c3ccc(F)cc3)CC2C)cc1F (centres unmarked)", "Bombyx mori EcR (VP16-BmEcR, CVBE) (Bombyx mori)", "Condition not met"),
    ("Cc1cccc(C(=O)N2c3ccc(F)cc3[C@@H](Nc3ccc(F)cc3)C[C@@H]2C)c1 (relative stereo)", "Bombyx mori EcR (VP16-BmEcR, CVBE) (Bombyx mori)", "Condition met"),
    ("C[C@H]1C[C@H](Nc2ccccc2)c2ccccc2N1C(=O)c1cccc(F)c1 (relative stereo)", "Bombyx mori EcR (VP16-BmEcR, CVBE) (Bombyx mori)", "Condition not met"),
]
